- Test system: Plasmodium falciparum
- ASSAY_METHOD_TEXT: Calibr Malaria Delayed Death Assay SOP
- Assay type: functional, organism-based
- Design: scale not given: in the data most compounds retested in dose-response had high values
- MEASUREMENT_CONDITIONS: concentration 4.99e-06 (unit not given; other assays of the set use mol/L)
Hit rate of the full screen: of about 38,000 compounds, about 1,200 (3.2%) showed an effect of 50% or more. The median lay at about -58%. This is one part of a sample in which strong results are shown more often than they occur.
MEASUREMENT_KIND: Percent Effect (%)
Numbers only, in %.

INSERT INTO results (compound, measured_number) VALUES
  ('Cc1cccc(CN2CC3(CCN(S(=O)(=O)C4CC4)CC3)OCC2=O)n1.O=C(O)C(F)(F)F', -75.59);

Would you be so kind as to report Percent Effect for each listed record?
1. Cc1ccc(-c2nc(CN3CCCC(Cn4cncn4)C3)co2)cc1 (configuration not stated)
2. Cl.Cl.c1csc(N2[C@H](Cn3cncn3)C[C@@H]3CNCC[C@@H]32)n1
3. Cn1c(N2CCOCC2)nc2cc(C(=O)N3CC(O)CO3)ccc21 (configuration not stated)
4. Cc1ccc(C)c(S(=O)(=O)NCCOc2ccc3nnc(C)n3n2)c1
5. CCOc1ccc2ccccc2c1CNCC1CCNCC1.Cl.Cl
6. CC(=O)N(C)c1nc(CN2CCCCC2Cn2cncn2)cs1 (configuration not stated)

1. -95.97
2. -62.09
3. -166.7
4. -6.832
5. 91.29
6. -131.1

Would you be so kind as to report Percent Effect for each listed record?
1. COc1ccc(C(=O)Nc2ccc3ncn(C(C)C)c(=O)c3c2)cc1
2. CC1CCCN(Cc2ccc(CNC(=O)NCc3ccon3)cc2)C1 (configuration not stated)
3. Cc1ccc(SC2CCCC2)c(C(=O)NCc2n[nH]c(=O)[nH]2)c1
4. CC(C)(C)c1cn2c(n1)C(CNCc1ccccn1)CCC2 (configuration not stated)
5. Cc1cn2c(n1)C(CNCC1=Cc3ccccc3OC1)CCC2 (configuration not stated)
6. CN1CC[C@H]2[C@H](C[C@@H](CN3CCCC3)N2c2nccs2)C1.O=C(O)C(F)(F)F.O=C(O)C(F)(F)F.O=C(O)C(F)(F)F
7. C1=C(CNC2CCc3ncnn3C2)COc2ccccc21 (configuration not stated)

[33.29, -178.1, -25.99, 92.56, 78.44, 72.73, -78.33]

Would you be so kind as to report Percent Effect for each listed record?
1. CCOc1cc(C(=O)n2cc(C)cn2)cc(OCC)c1OCC
2. Cc1nc(CN2CCC3(CCCN(Cc4ccncc4)C3)C2=O)cs1.O=C(O)C(F)(F)F.O=C(O)C(F)(F)F.O=C(O)C(F)(F)F (configuration not stated)
3. CC(=O)N1CCCC(C(=O)NCCc2csc(-c3ccncc3)n2)C1 (configuration not stated)
4. CC(C)c1nccc(-c2nccn2CCS(C)(=O)=O)n1
5. CC(C)(C)c1ncc(CNCC2CCCn3ccnc32)s1 (configuration not stated)

1: -156.8; 2: -86.96; 3: -77.87; 4: -2.25; 5: 11.38

Would you be so kind as to report Percent Effect for each listed record?
1. COCCN(Cc1sccc1C)C(=O)COc1ccccc1O
2. Clc1cc(NCc2ccncc2)nc2[nH]ccc12
3. Clc1ccc2c(c1)C=C(CNC1CCc3ncnn3C1)CO2 (configuration not stated)

-70.17
63.3
-63.09

Would you be so kind as to report Percent Effect for each listed record?
1. CC(=O)N(C)c1nc(CN2CCCC2c2cnn(C)c2)cs1 (configuration not stated)
2. COc1cccc(-c2n[nH]cc2CNCC2CCS(=O)(=O)C2)c1 (configuration not stated)
3. O[C@@H]1CN(CC2=Cc3cc(Cl)ccc3OC2)CC[C@H]1N1CCCCCC1
4. Cc1cccc(C(=O)NCC2CCS(=O)(=O)C2)n1 (configuration not stated)
5. COc1ccc(OC)c(Nc2nc3c(C)nn(C)c3c(=O)n2C)c1

1. -87.18
2. -56.98
3. -10.35
4. -33.59
5. -88.36

Would you be so kind as to report Percent Effect for each listed record?
1. O=C(c1ccc(-c2ccoc2)nc1)N1CCCN(C2CCCCC2)CC1
2. Cc1nc(N2CCCC2)ccc1NCc1ccccn1
3. CCC(=O)N1CC[C@H]2[C@H](C[C@@H](Cn3cccn3)N2c2nccs2)C1.O=C(O)C(F)(F)F.O=C(O)C(F)(F)F
4. CCN(C(C)=O)c1nc(CN2CCCCC2Cn2cncn2)cs1 (configuration not stated)
5. O=C1CCc2cc(-c3csc(CCN4CCOC4=O)n3)c(F)cc2N1
6. CNC(=O)[C@@]12CCC3(CCNCC3)[C@@H]1CN(S(C)(=O)=O)C2

1. -100.8
2. -6.068
3. -17.69
4. 7.085
5. 10.62
6. -13.04

Would you be so kind as to report Percent Effect for each listed record?
1. O=S(=O)(Cc1ccc(F)cc1)NCCc1nnc2n1CCC2
2. COc1ccc2ccccc2c1CNCC1CCS(=O)(=O)C1.Cl (configuration not stated)
3. Cc1ccc(-c2n[nH]cc2CNCC2CCS(=O)(=O)C2)o1 (configuration not stated)
4. O=C(NCc1ccco1)[C@H]1CC[C@@H]2[C@@H](CCN2c2ncccn2)O1.O=C(O)C(F)(F)F
5. Cc1c(Br)cccc1C(=O)NCC1CCNCC1.Cl

-62.4
66.1
-9.681
-5.9
-131.1

Would you be so kind as to report Percent Effect for each listed record?
1. CN1[C@H](CN2CCCC2)C[C@@H]2CN(C(=O)Cc3cccs3)CC[C@@H]21.O=C(O)C(F)(F)F.O=C(O)C(F)(F)F
2. CC(=O)N(c1ccc(F)cc1)c1nc(CN2CCCC2C(C)C)cs1 (configuration not stated)
3. Cc1cccc(CN2CC[C@@H]3[C@@H](CO[C@H]3CNc3ncccn3)C2)n1.O=C(O)C(F)(F)F.O=C(O)C(F)(F)F.O=C(O)C(F)(F)F

1. -31.64
2. 89.73
3. -54.04

Please give the measured Percent Effect for this compound: `CC[C@@H](C)[C@@H](N)C(=O)Nc1cccc(-c2cnc(NCCO)nc2)c1`
-39.72
